- Test system: CAMK1G;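 also: KINOMEscan kinase panel screen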
- test settings: concentration: 1 μM,replicates: in singlicate; n = 1
Can you tell me %Inh for the items I'm about to list?
// note: answer is a bare numeric in %

Query block: Which value of %Inh has been reported for "Cc1n[nH]c2ccc(-c3cc(OC[C@@H](N)Cc4ccccc4)cnc3-c3ccoc3)cc12.O=C(O)C(F)(F)F.O=C(O)C(F)(F)F" in the records?
Result block: 18

Query block: // %Inh lookup, key: "Cc1cc2cn[nH]c2cc1-c1cccc2c(N)c(C(N)=O)nnc12"
Result block: 11

Query block: Find the recorded %Inh belonging to "Cl.Cl.NC[C@H](CC1CCCCC1)NC(=O)c1cc(Br)c(-c2ccnc3[nH]ccc23)s1" and report it.
Result block: 0

Query block: Quick check: %Inh of "C[C@@H]1CCN(C(=O)CC#N)C[C@@H]1N(C)c1ncnc2[nH]ccc12" ?
Result block: 0

Query block: // query %Inh value for entry Cl.Cl.Nc1nc(-c2ccc3c(N)n[nH]c3c2)cc(N2CCCC(NC(=O)c3ccccc3)C2)n1 (stereo not drawn)
Result block: 10

Query block: Find the recorded %Inh belonging to "CN(C)CCOc1ccc(-c2cc(-c3c[nH]nc3-c3ccccn3)ccn2)cc1" and report it.
Result block: 7
